Measured log10 of MIC values are reported for all entries that follow.
system: Enterococcus faecalis; test: In vitro minimum inhibitory concentration for Streptococcus faecalis ATCC 10541; assay type: functional
EXPERIMENTAL READOUT: log10 of MIC (log10 of the value in µg/mL)

CPD SMILES	OBSERVED MEASUREMENT
C[C@H]1N(c2c(F)cc3c(=O)c(C(=O)O)cn(C4CC4)c3c2F)C[C@]1(C)N	0.00
C[C@H]1[C@H](N)CN1c1cc2c(cc1F)c(=O)c(C(=O)O)cn2C1CC1	-0.60
CC1(C)[C@@H](N)CN1c1nc2c(cc1F)c(=O)c(C(=O)O)cn2C1CC1	0.30
C[C@H]1[C@@H](N)CN1c1c(F)cc2c(=O)c(C(=O)O)cn(C3CC3)c2c1F	0.00
C[C@H]1[C@H](N)CN1c1c(F)c(N)c2c(=O)c(C(=O)O)cn(C3CC3)c2c1F	-1.22
CN[C@H]1CN(c2c(F)cc3c(=O)c(C(=O)O)cn(C4CC4)c3c2F)[C@@H]1C	-0.30

* * *

system: Staphylococcus aureus; assay: In vitro minimum inhibitory concentration for Staphylococcus aureus ATCC 25178; type: functional
Measured log10 MIC values are reported for all entries that follow.
EXPERIMENTAL READOUT: log10 MIC (log10 of the value in µg/mL)

CPD SMILES	EXPERIMENTAL READOUT	OBSERVED MEASUREMENT
C[C@H]1[C@H](N)CN1c1c(F)cc2c(=O)c(C(=O)O)cn(C3CC3)c2c1Cl	log10 MIC	-1.52
C[C@H]1[C@H](N)CN1c1nc2c(cc1F)c(=O)c(C(=O)O)cn2-c1ccc(F)cc1	log10 MIC	-0.60
C[C@H]1[C@H](N)CN1c1c(F)cc2c(=O)c(C(=O)O)cn(-c3ccc(F)cc3F)c2c1F	log10 MIC	-0.92
C[C@H]1[C@H](N)CN1c1c(F)cc2c(=O)c(C(=O)O)cn(C3CC3)c2c1F	log10 MIC	-1.22
C[C@H]1[C@H](N)CN1c1c(F)cc2c(=O)c3c(=O)[nH]sc3n(C3CC3)c2c1F	log10 MIC	-0.92
CCNC[C@H]1CN(c2c(F)cc3c(=O)c(C(=O)O)cn(C4CC4)c3c2F)[C@@H]1C	log10 MIC	-0.60
C[C@H]1N(c2cc3c(cc2F)c(=O)c(C(=O)O)cn3C2CC2)C[C@]1(C)O	log10 MIC	-0.60
CCn1cc(C(=O)O)c(=O)c2cc(F)c(N3C[C@@H](N)[C@@H]3C)cc21	log10 MIC	0.00
C[C@H]1N(c2c(F)cc3c(=O)c(C(=O)O)cn(C4CC4)c3c2F)C[C@]1(C)O	log10 MIC	-0.92
C[C@H]1[C@H](N)CN1c1cc2c(cc1F)c(=O)c(C(=O)O)cn2-c1ccc(F)cc1F	log10 MIC	-0.92
CC[C@H]1[C@@H](N)CN1c1c(F)cc2c(=O)c(C(=O)O)cn(C3CC3)c2c1F	log10 MIC	-0.92
CC1(C)[C@@H](N)CN1c1nc2c(cc1F)c(=O)c(C(=O)O)cn2C1CC1	log10 MIC	-0.92
CN[C@H]1CN(c2c(F)cc3c(=O)c(C(=O)O)cn(C4CC4)c3c2F)[C@@H]1C	log10 MIC	-1.22
CCn1cc(C(=O)O)c(=O)c2cc(F)c(N3C[C@@H](N)[C@@H]3C)nc21	log10 MIC	-0.30
C[C@H]1[C@H](N)CN1c1c(F)cc2c(=O)c(C(=O)O)cn(CCF)c2c1Cl	log10 MIC	-0.92
CCn1cc(C(=O)O)c(=O)c2cc(F)c(N3C[C@@H](N)[C@@H]3C)c(Cl)c21	log10 MIC	-0.92
CC[C@H]1[C@@H](O)CN1c1c(F)cc2c(=O)c(C(=O)O)cn(C3CC3)c2c1F	log10 MIC	0.00
CC1(C)[C@@H](N)CN1c1c(F)cc2c(=O)c(C(=O)O)cn(C3CC3)c2c1F	log10 MIC	-0.92
